Known viscosity of a selection of compounds
assay: xn = mol fraction of the nth substance listed; conditions: 308.15 K; 101 kPa; x2 = 0.25
Write the value in mPa·s as a bare number.

{"COMPOUND": "CCCCCCCCO + CCCO", "viscosity / mPa·s": 3.995}
{"COMPOUND": "CCCCCCCCO + CCO", "viscosity / mPa·s": 3.945}
{"COMPOUND": "CCCCCCCCO + CO", "viscosity / mPa·s": 3.746}

Okay, now this compound:
Problem: Item CCCCCCCCO + CCCCO has what recorded viscosity?
Result: 4.309

----------
assay: xn = mol fraction of the nth substance listed; details: 318.15 K; 101 kPa; x2 = 0.65
ASSAY_READOUT: viscosity (mPa·s)
Write the value in mPa·s as a bare number.

Examples with answers:
{"MOLECULE": "CCCCCCCCO + CO", "MEASURE_UNIT": "mPa·s", "DATA_VALUE": 1.403}
{"MOLECULE": "CCCCCCCCO + CCO", "MEASURE_UNIT": "mPa·s", "DATA_VALUE": 1.678}
{"MOLECULE": "CCCCCCCCO + CCCO", "MEASURE_UNIT": "mPa·s", "DATA_VALUE": 2.063}

Okay, now this molecule:
Problem: Item CCCCCCCCO + CCCCO has what recorded viscosity?
Result: 2.275
